Hey, just so you know, these numbers are from ChEMBL document CHEMBL2321724.

measured.target: Voltage-gated inwardly rectifying potassium channel KCNH2 (Homo sapiens)
Sequence (Q12809 whole entry): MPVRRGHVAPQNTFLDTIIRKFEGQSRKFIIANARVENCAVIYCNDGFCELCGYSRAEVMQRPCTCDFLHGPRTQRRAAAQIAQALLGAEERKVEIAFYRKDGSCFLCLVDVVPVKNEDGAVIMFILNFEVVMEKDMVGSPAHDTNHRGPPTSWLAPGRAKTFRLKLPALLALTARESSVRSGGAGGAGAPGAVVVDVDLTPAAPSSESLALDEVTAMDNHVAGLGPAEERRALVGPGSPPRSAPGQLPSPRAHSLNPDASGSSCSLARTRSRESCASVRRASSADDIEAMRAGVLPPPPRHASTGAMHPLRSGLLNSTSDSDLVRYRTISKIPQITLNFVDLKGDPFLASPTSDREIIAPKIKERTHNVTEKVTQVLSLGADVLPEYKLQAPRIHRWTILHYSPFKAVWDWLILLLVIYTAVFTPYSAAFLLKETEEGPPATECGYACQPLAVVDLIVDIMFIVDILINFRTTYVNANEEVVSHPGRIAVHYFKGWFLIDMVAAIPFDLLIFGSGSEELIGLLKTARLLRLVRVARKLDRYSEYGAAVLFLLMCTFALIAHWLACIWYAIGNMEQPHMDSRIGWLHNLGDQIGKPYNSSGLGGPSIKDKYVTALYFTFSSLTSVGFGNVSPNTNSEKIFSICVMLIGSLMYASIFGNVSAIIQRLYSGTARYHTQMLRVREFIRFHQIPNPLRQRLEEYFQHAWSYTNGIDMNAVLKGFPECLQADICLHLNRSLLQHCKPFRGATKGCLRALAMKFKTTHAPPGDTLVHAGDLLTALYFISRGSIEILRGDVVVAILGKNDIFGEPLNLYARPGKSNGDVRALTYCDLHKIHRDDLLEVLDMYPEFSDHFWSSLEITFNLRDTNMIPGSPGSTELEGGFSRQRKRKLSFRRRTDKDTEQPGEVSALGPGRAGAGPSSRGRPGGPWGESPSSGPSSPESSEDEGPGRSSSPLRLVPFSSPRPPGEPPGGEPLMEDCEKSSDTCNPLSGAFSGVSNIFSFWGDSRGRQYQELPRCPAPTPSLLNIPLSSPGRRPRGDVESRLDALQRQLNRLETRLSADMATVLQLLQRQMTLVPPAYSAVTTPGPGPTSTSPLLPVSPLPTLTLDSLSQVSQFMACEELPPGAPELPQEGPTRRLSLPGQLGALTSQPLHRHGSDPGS
measurement.notes: Inhibition of human ERG K+ channel expressed in HEK293 cells after 15 mins by patch clamp assay
Type: cell-based
Can you tell me IC50 for the items I'm about to list?
API: value field is a number in nM; no unit string.

Consider the compound Cc1ccc(OCCCc2cc(N)cc(CCCOc3ccc(C)cc3)n2)cc1 . State its measured IC50.
146

Consider the compound Cc1ccc(OCCCc2cccc(CCCOc3ccc(C)cc3)[n+]2C)cc1 . State its measured IC50.
962

Consider the compound Cc1ccc(CCCOCc2cccc(COCCCc3ccc(C)cc3)[n+]2C)cc1 . State its measured IC50.
194

====

measured.target: hERG (KCNH2) K+ channel (Homo sapiens, UniProt Q12809)
Sequence (Q12809 whole entry): as above
measurement.notes: Displacement of [3H]astemizole from human ERG K+ channel expressed in HEK293 cells at 10 uM by scintillation spectrophotometric analysis
protocol.conditions: hek293
Can you tell me inhibition at 10 µM for the items I'm about to list?
API: value field is a number in %; no unit string.

Consider the compound Cc1ccc(Cc2cccc(COc3ccc(C)cc3)n2)cc1 . State its measured inhibition at 10 µM.
9

Consider the compound c1ccc(OCc2cccc(COc3ccccc3)n2)cc1 . State its measured inhibition at 10 µM.
15

====

measured.target: hERG (KCNH2) K+ channel (Homo sapiens)
measurement.notes: Assay index, ratio of IC50 for human ERG K+ channel expressed in HEK293 cells by patch clamp assay to IC50 for human ERG K+ channel expressed in HEK293 cells by radioligand binding assay
Format: cell-based
protocol.conditions: HEK293 cells expressing human ERG K+ channel, read-out: Ratio IC50
endpoint.name: selectivity ratio

State recorded selectivity ratio with hERG (KCNH2) K+ channel (Homo sapiens), entry Cc1ccc(OCCCc2cccc(CCCOc3ccc(C)cc3)[n+]2C)cc1 , no comment.
11.2

State recorded selectivity ratio with hERG (KCNH2) K+ channel (Homo sapiens), entry Cc1ccc(CCCOCc2cccc(COCCCc3ccc(C)cc3)[n+]2C)cc1 , no comment.
8.1

State recorded selectivity ratio with hERG (KCNH2) K+ channel (Homo sapiens), entry Cc1ccc(OCCCc2cc(N)cc(CCCOc3ccc(C)cc3)n2)cc1 , no comment.
0.86

====

measured.target: Voltage-gated inwardly rectifying potassium channel KCNH2 (Homo sapiens)
measurement.notes: Displacement of [3H]astemizole from human ERG K+ channel expressed in HEK293 cells by scintillation spectrophotometric analysis
Just a reminder that ties go to No: only IC50 strictly below 200 nM counts as Yes.

Say whether its IC50 is strictly beneath 200 nM. Entry: Cc1ccc(Cc2ccnc(COc3ccc(C)cc3)c2)cc1
No

Say whether its IC50 is strictly beneath 200 nM. Entry: C[n+]1c(C#Cc2cccc(Cl)c2)cccc1C#Cc1cccc(Cl)c1
No

Say whether its IC50 is strictly beneath 200 nM. Entry: C[n+]1c(CCCOc2ccccc2)cccc1CCCOc1ccccc1
No

Say whether its IC50 is strictly beneath 200 nM. Entry: Cc1ccc(COCc2cccc(COCc3ccc(C)cc3)[n+]2C)cc1
Yes

Say whether its IC50 is strictly beneath 200 nM. Entry: Cc1ccc(OCCCc2cccc(CCCOc3ccc(C)cc3)[n+]2C)cc1
Yes

Say whether its IC50 is strictly beneath 200 nM. Entry: Cc1ccc(CCOCc2cccc(COCCc3ccc(C)cc3)[n+]2C)cc1
Yes

Say whether its IC50 is strictly beneath 200 nM. Entry: CCCCCCC#Cc1cccc(C#CCCCCCC)[n+]1C
No

Say whether its IC50 is strictly beneath 200 nM. Entry: Cc1ccc(CCCOCc2cccc(COCCCc3ccc(C)cc3)[n+]2C)cc1
Yes
